target: myeloperoxidase (MPO) (Homo sapiens, UniProt P05164); test: MPO peroxidation assay (Amplex Red assay); format: biochemical; conditions: MPO peroxidation assay IC50 values (binned), MPO peroxidation (Amplex Red), ranges given
Sequence (P05164 49-745): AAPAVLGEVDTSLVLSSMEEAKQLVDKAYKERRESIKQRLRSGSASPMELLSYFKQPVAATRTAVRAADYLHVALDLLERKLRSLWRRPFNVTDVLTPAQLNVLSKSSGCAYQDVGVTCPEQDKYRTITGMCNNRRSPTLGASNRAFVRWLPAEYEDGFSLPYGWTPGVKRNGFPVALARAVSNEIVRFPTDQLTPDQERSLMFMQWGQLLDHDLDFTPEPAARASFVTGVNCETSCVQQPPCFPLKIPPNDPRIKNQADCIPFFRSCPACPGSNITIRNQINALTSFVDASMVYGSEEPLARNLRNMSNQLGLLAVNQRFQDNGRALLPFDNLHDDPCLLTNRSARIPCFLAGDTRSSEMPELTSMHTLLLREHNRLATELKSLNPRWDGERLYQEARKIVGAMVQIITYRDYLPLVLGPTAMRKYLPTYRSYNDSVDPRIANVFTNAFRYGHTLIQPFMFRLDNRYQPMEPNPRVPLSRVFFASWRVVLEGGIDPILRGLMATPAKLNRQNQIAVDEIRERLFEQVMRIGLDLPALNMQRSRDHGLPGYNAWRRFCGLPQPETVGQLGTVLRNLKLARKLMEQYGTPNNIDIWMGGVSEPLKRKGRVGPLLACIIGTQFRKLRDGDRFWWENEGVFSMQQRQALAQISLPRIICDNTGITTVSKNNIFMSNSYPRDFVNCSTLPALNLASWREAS
pIC50: −log10 of the molar value.
Each item that follows carries a reported pIC50.

Consider the following illustrative entries.
1) Cc1nn(-c2ccccc2)nc1COc1cc(N)nc2[nH]nnc12 [Example 21]	≥ 7.22
2) Nc1cc(OCc2ncc(-c3ccccc3)o2)c2nn[nH]c2n1 [Example 25]	6.82 to 7.22
3) Nc1cc(OCc2nn(-c3ccccc3)nc2CO)c2nn[nH]c2n1 [Example 64]	6.82 to 7.22

Now for a further compound.
Q: Entry Nc1cc(OCc2cn(-c3ccccc3)nn2)c2nn[nH]c2n1 [Example 4] has what pIC50?
A: 6.82 to 7.22
